% binding of analyte mAb values by entry
target system: T1, Recombinant human PSGL-1(ECD)-hFc1 (R&D Systems, Cat. 3345-PS) (human, UniProt Q14242 42-305)
T1 construct: Bought; Gln42-Val295 counted on AAC50061; also called PSGL-1-Fc; PSGL-1-hFc1 chimera; not shown: human IgG1 Fc, Pro100-Lys330
T1 sequence: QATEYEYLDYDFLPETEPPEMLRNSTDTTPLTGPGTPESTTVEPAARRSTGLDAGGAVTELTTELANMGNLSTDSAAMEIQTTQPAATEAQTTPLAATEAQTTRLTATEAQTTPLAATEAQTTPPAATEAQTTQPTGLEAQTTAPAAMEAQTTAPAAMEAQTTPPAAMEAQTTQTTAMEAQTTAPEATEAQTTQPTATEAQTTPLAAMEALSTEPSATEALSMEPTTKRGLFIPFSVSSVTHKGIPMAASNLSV
measurement protocol: Octet tandem; competitor 15A7

>  <binder>
18F17 (antibody, V domains shown, Non-functional anti-PSGL-1 mAb (Verseau); only variable domains given) VH: QVTLKESGPGILQPSQTLSLTCSFSGFSLSTFGMGVGWIRQPSGKGLEWLAHIWWDDDKYYNPALKSRLTISKDTSKNQVFLKIANVDTADTATYYCAIYYDYGVGFDYWGQGTTLTVSS VL: DIVMTQAAPSVPVTPGESVSISCRSSKSLLHSNGYTFLYWFLQRPGQSPQLLIYRMSNLASGVPDRFSGSGSGTAFTLRISRVEAEDVGVYYCMQHLEYPFTFGTGTKLEIK

>  <quantity unit>
%

>  <% binding of analyte mAb>
61.9

$$$$
>  <binder>
19L04 (antibody, IgG4, V domains shown, From mouse immunisation; only variable domains given) VH: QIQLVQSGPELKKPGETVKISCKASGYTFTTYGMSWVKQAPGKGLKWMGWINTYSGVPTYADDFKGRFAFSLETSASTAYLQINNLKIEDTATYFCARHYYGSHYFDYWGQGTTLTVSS VL: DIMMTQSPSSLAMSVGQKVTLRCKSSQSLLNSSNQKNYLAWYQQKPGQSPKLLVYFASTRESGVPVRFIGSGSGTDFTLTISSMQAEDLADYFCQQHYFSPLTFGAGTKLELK

>  <quantity unit>
%

>  <% binding of analyte mAb>
28.3

$$$$
>  <binder>
19N05 (antibody, V domains shown, From mouse immunisation; only variable domains given) VH: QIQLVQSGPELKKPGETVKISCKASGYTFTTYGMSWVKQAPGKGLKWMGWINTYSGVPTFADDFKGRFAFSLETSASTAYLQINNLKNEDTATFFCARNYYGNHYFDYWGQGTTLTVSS VL: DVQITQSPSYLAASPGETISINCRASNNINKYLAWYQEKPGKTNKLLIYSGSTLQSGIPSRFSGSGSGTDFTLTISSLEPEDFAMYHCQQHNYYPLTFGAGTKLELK

>  <quantity unit>
%

>  <% binding of analyte mAb>
36

$$$$
>  <binder>
15A7 (antibody, V domains shown, Control mAb, recombinant; also called h15A7; 15A17) VH: EVQLVESGGGLVQPGGSLRLSCAASGFTFSSFGMHWVRQAPGKGLEWVAYINGGSSTIFYANAVKGRFTISRDNAKNTLYLQMNSLRAEDTAVYYCARYASYGGGAMDYWGQGTLVTVSS VL: DIQMTQSPSSLSASVGDRVTITCRSSQSIVHNDGNTYFEWYQQKPGKAPKLLIYKVSNRFSGVPSRFSGSGSGTHFTLTISSLQPEDFATYYCFQGSYVPLTFGQGTKVEIK

>  <quantity unit>
%

>  <% binding of analyte mAb>
28.3

$$$$
